Biological target: human renin (Homo sapiens)
Sequence (P00797 67-406): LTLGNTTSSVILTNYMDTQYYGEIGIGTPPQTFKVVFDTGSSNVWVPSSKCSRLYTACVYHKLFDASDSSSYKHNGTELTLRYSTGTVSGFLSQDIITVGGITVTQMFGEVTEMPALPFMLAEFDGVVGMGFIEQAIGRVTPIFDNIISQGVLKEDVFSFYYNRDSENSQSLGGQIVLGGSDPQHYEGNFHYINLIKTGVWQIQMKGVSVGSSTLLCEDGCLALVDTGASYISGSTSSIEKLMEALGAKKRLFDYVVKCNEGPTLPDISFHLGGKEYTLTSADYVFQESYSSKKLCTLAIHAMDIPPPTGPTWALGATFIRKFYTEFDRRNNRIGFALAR
Assay: Human Renin Inhibition in vitro
Settings: pH 7.4, 37° C., two hours, human plasma; angiotensin I by radioimmunoassay
Assignment: determine reported pIC50 for the given compounds.
Worth noting: pIC50 values are minus log10 of concentrations stated in mol/L.

Prompt: Form field: reported pIC50 of C#CC[C@H](NC(=O)C(Cc1ccccc1)CS(=O)(=O)C(C)(C)C)C(=O)N[C@@H](CC1CCCCC1)[C@@H](O)[C@@H](O)CC(C)C (some centres unmarked) [Example 1]
Completion: 9.64

Prompt: # iterate: C#CC[C@H](NC(=O)[C@H](Cc1ccccc1)CS(=O)(=O)C(C)(C)C)C(=O)N[C@@H](CC1CCCCC1)[C@@H](O)[C@@H](O)CC(C)C [Example 2]
Completion: 9.77
